- Tested on: VSE775
- METHOD DESCRIPTION: MIC, microdilution broth method
- Format: cell-based, Enterococcus faecalis
- Parameters: unit not given beside the values
- MEASUREMENT PARAMETERS: ESKAPE panel, Gram-positive
MIC, VSE775 strictly less than 1 = Yes. Otherwise No.

The following molecules have reported results that may help.
>  <MOLECULE>
C[C@H]1COc2c(N3CC[C@H](Nc4ncccn4)C3)c(F)cc3c(=O)c(C(=O)O)cn1c23

>  <DISCRETE LABEL>
No

$$$$
>  <MOLECULE>
C[C@H]1COc2c(N3CC[C@@H](Nc4cnccn4)C3)c(F)cc3c(=O)c(C(=O)O)cn1c23

>  <DISCRETE LABEL>
Yes

$$$$
>  <MOLECULE>
Cc1cc(C)nc(N[C@@H]2CCN(c3c(F)cc4c(=O)c(C(=O)O)cn5c4c3OC[C@@H]5C)C2)n1

>  <DISCRETE LABEL>
Yes

$$$$
>  <MOLECULE>
C[C@H]1COc2c(N3CCC(Nc4ncccn4)C3)c(F)cc3c(=O)c(C(=O)O)cn1c23 (stereo partly shown)

>  <DISCRETE LABEL>
Yes

$$$$
>  <MOLECULE>
C[C@H]1COc2c(N3CC[C@@H](Nc4ncc(F)cn4)C3)c(F)cc3c(=O)c(C(=O)O)cn1c23

>  <DISCRETE LABEL>
Yes

$$$$
>  <MOLECULE>
C[C@H]1COc2c(N3CC[C@H](Nc4ncc(N)cn4)C3)c(F)cc3c(=O)c(C(=O)O)cn1c23

>  <DISCRETE LABEL>
Yes

$$$$

Exam item: Threshold test, MIC, VSE775 < 1: `C[C@H]1COc2c(N3CC[C@@H](N(C)C4CC4)C3)c(F)cc3c(=O)c(C(=O)O)cn1c23`
Marked response: No

* * *

- Test system: KP13368
- METHOD DESCRIPTION: MIC, microdilution broth method
- Assay type: cell-based
- MEASUREMENT PARAMETERS: Klebsiella pneumoniae (KP13368), Gram-Negative; read-out: MIC
REPORTED METRIC: MIC (µg/mL)
Give a bare numeral; the unit µg/mL is implied.

>  <SMILES TEXT>
C[C@H]1COc2c(N3CCN(c4ncc(F)cn4)CC3)c(F)cc3c(=O)c(C(=O)O)cn1c23

>  <REPORTED METRIC>
MIC

>  <MEAS VALUE>
32

$$$$

Measured MIC, `C[C@H]1COc2c(N3CC[C@@H](Nc4cnccn4)C3)c(F)cc3c(=O)c(C(=O)O)cn1c23` : 8

Record summary for `C[C@H]1COc2c(N3CC[C@@H](Nc4ncccn4)C3)c(F)cc3c(=O)c(C(=O)O)cn1c23` : reported MIC = 4

For `C[C@H]1COc2c(N3CC[C@@H](Nc4ncc(F)cn4)C3)c(F)cc3c(=O)c(C(=O)O)cn1c23` the compound record lists MIC as 32

Memo: `Cc1cc(N2CCN(c3c(F)cc4c(=O)c(C(=O)O)cn5c4c3OC[C@@H]5C)CC2)nc(C(C)C)n1` , reported MIC: 64

* * *

- Tested on: EMRSA16
- METHOD DESCRIPTION: MIC, microdilution broth method
- Type: cell-based, Staphylococcus aureus
- MEASUREMENT PARAMETERS: ESKAPE panel, Gram-positive; in µg/mL
MIC, EMRSA16 values, listed per item
Answer with the value's number alone.

>  <COMPOUND>
C[C@H]1COc2c(N3CC[C@@H](N(C)C4CC4)C3)c(F)cc3c(=O)c(C(=O)O)cn1c23

>  <MEASUREMENT TARGET>
EMRSA16

>  <MIC, EMRSA16>
32

$$$$
>  <COMPOUND>
C[C@H]1COc2c(N3CC[C@@H](Nc4ncccn4)C3)c(F)cc3c(=O)c(C(=O)O)cn1c23

>  <MEASUREMENT TARGET>
EMRSA16

>  <MIC, EMRSA16>
1

$$$$
>  <COMPOUND>
C[C@H]1COc2c(N3CC[C@H](Nc4ncccn4)C3)c(F)cc3c(=O)c(C(=O)O)cn1c23

>  <MEASUREMENT TARGET>
EMRSA16

>  <MIC, EMRSA16>
8

$$$$
>  <COMPOUND>
Cc1cc(N2CCN(c3c(F)cc4c(=O)c(C(=O)O)cn5c4c3OC[C@@H]5C)CC2)nc(C(C)C)n1

>  <MEASUREMENT TARGET>
EMRSA16

>  <MIC, EMRSA16>
16

$$$$
>  <COMPOUND>
C[C@H]1COc2c(N3CC[C@@H](N)C3)c(F)cc3c(=O)c(C(=O)O)cn1c23

>  <MEASUREMENT TARGET>
EMRSA16

>  <MIC, EMRSA16>
32

$$$$

Please examine the following record next.
In plain terms, C[C@H]1COc2c(N3CCC(Nc4ncccn4)C3)c(F)cc3c(=O)c(C(=O)O)cn1c23 (some centres unmarked) has a documented MIC, EMRSA16 of 4
